Some compounds, each annotated with its measured normalized growth.
assay info: chemical genetic growth profiling, strain panel (AID 1159580);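 further: tested at 20 µM; growth read once vehicle control cultures reached saturation at 30 °C; 1 = growth at the plate median or of vehicle wells; lower values mean less growth of the strain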
run parameters: S. cerevisiae deletion strains, growth OD, locus YHR079C, strain IRE1 (second series), hits give low values
Out of some 5,500 compounds screened, about 2,000 (36%) were called active. Not shown: some 18% with an inconclusive outcome. This is one part of the list.
reported property: normalized growth

>  <structure>
COc1ccc(CC(=O)c2ccc(O)cc2O)cc1

>  <measured>
0.978 (inactive)

$$$$
>  <structure>
COc1ccc([C@@H](C)C(=O)c2ccc(O)cc2O)cc1

>  <measured>
0.971 (inactive)

$$$$
>  <structure>
COc1cc([C@@H]2c3cc4c(cc3[C@H](O)[C@H]3COC(=O)[C@H]23)OCO4)cc(OC)c1OC

>  <measured>
1.02 (inactive)

$$$$
>  <structure>
NC(=NCCCCCCN=C(N)N=C(N)Nc1ccc(Cl)cc1)N=C(N)Nc1ccc(Cl)cc1

>  <measured>
0.0602 (active)

$$$$
>  <structure>
COc1ccc(NS(=O)(=O)c2ccc(N)cc2)nn1

>  <measured>
0.998 (inactive)

$$$$
>  <structure>
CC(C)N=C(N)N=C(N)Nc1ccc(Cl)cc1

>  <measured>
1.02 (inactive)

$$$$
